- Assay protocol: Metabolic stability in mouse liver microsomes assessed as parent compound remaining at 0.5 uM incubated for 10 mins in presence of NADPH by LC-MS/MS analysis
- Assay type: ADME, Microsome
- Test parameters: read-out: Stability
Would you kindly list remaining at 10 min, 0.5 µM for each of these molecules?
Numbers only, in %.

Prompt line: I am curious: what remaining at 10 min, 0.5 µM value has been reported for CCc1nc([C@@H](N)CC(C)C)nc2cc(OC)c(-c3cnco3)cc12 ?
Response line: 47

Prompt line: Which remaining at 10 min, 0.5 µM is reported for this molecule? CC(C)C[C@H](N)c1cc(C#N)c2cc(-c3ccncc3)ccc2n1
Response line: 56

Prompt line: Look up remaining at 10 min, 0.5 µM: CC(C)C[C@@H](N)c1cc(C#N)c2cc(-c3ccncc3)ccc2n1
Response line: 77

Prompt line: What value of remaining at 10 min, 0.5 µM has been reported for the following molecule? CC(C)C[C@H](N)c1cc(C#N)c2cc(-c3cnco3)ccc2n1
Response line: 71

Turning now to a further molecule:
Prompt line: # get_value(readout='remaining at 10 min, 0.5 µM', item= CCc1nc([C@@H](N)CC(C)C)nc2ccc(-c3cnco3)cc12 )
Response line: 56
